All values here come from PubChem BioAssay (EPA / NIEHS).

- Read-out: TIMP metallopeptidase inhibitor 2 (TIMP2), TIMP2 (gene 7077)
- assay text: BSK_KF3CT_TIMP2: BioMAP Diversity Plus: KF3CT Assay for TIMP metallopeptidase inhibitor 2 (TIMP2) Biomarker Activity (AID 2283071)
- measurement context: primary human keratinocytes with fibroblasts; actives raise or lower the signal
Calls of active or inactive are those of the source. The calls were made as follows: active = hit-call score of the fitted dose curve at least 0.9, where 1 is the maximum; inactive = score below 0.9.
Entry note: the call must match one of True for active, False for inactive

Field: outcome | Entry: O=C(O)c1cccc(C[C@@H]2COc3ccc(OCc4nc5cc(F)ccc5s4)cc3[C@@H]2O)c1
False

Follow-up entry: Cn1c(=O)c2[nH]cnc2n(C)c1=O
False

Follow-up entry: OC(O)(C(F)C(O)(O)C(F)(F)F)C(F)(F)F
False

Follow-up entry: O=C(O)c1ccc2c(c1)nc(C(=O)NC1CCN(C3CC3)CC1)n2Cc1cc(-c2ccc(Cl)s2)on1
False

Follow-up entry: CCN(CC)C(=S)SSC(=S)N(CC)CC
True

Follow-up entry: OCc1c[nH]c2ccccc12
False

Follow-up entry: COS(C)(=O)=O
False

Follow-up entry: FC(F)(F)COC(OCC(F)(F)F)OCC(F)(F)F
False

Follow-up entry: OCc1ccccc1
False

Follow-up entry: CCCCCCCCN(C)C
False

Follow-up entry: C[C@]12C=CC(=O)C=C1CC[C@H]1[C@@H]3C[C@@H](O)[C@](O)(C(=O)CO)[C@@]3(C)C[C@H](O)[C@@]12F
False

Follow-up entry: NC(N)=O
False

Follow-up entry: CCCCOC(=O)c1ccccc1
False

Follow-up entry: O=c1[nH]cnc2c1ncn2[C@H]1CC[C@@H](CO)O1
False

Follow-up entry: NCC(F)(F)C(F)(F)C(F)(F)C(F)(F)F
False

Follow-up entry: CCCCN1C(=O)[C@@H]([C@H](O)C2CCCCC2)NC(=O)C12CCN(Cc1ccc(Oc3ccc(C(=O)O)cc3)cc1)CC2
False

Follow-up entry: CCCCCCCCCCCCCCCCOS(=O)(=O)O
True

Follow-up entry: O=C(NO)C1(NS(=O)(=O)c2ccc(Oc3ccc(F)cc3)cc2)CCOCC1
False

Follow-up entry: CCCCCCCC/C=C\CCCCCCCC(=O)OC[C@@H](O)[C@H]1OC[C@H](O)[C@H]1O
False

Follow-up entry: CCc1ccc(O)c(C(C)(C)C)c1
True

Follow-up entry: OCCC(F)(F)C(F)(F)C(F)(F)C(F)(F)F
False

Follow-up entry: Cc1ncc([C@@H](CCCCCCc2ccc3c(n2)NCCC3)CC(=O)O)cn1
False

Follow-up entry: O=S(=O)(O)c1ccc(N=Nc2c(O)ccc3cc(S(=O)(=O)O)ccc23)cc1
False

Follow-up entry: CCOC(N)=O
False

Follow-up entry: CCCCC(CC)C(=O)OCCOCCOCCOC(=O)C(CC)CCCC (stereo unspecified)
False

Follow-up entry: Cn1cc[nH]c1=S
False

* * *

- Read-out: Cytochrome P450 3A4 (Homo sapiens)
- assay text: LTEA_HepaRG_CYP3A4: Life Technologies and Expression Analysis (LTEA) Assay for CYP3A4 using HepaRG (AID 2283487)
- measurement context: mRNA level, 48 h; actives raise or lower the signal
- Protocol: LTEA_HepaRG is a cell based, multiplexed-readout assay that uses HepaRG, a human liver cell line, with measurements taken at 48 hours after chemical dosing on a 96-well plate.LTEA_HepaRG_CYP3A4 is one of 102 assay component(s) measured in the LTEA HepaRG cell culture assay. It is a marker of NR mediated metabolism.Data from the assay component LTEA_HepaRG_CYP3A4 was analyzed into 1 endpoint. […]
Calls of active or inactive are those of the source. How the source made its calls: active means hit-call score of the fitted dose curve at least 0.9, where 1 is the maximum; inactive means score below 0.9.
Entry note: the call must match one of true for active, false for inactive

Field: outcome | Entry: O=C(NO)C1(NS(=O)(=O)c2ccc(Oc3ccc(F)cc3)cc2)CCOCC1
true

Follow-up entry: CC1(C)C(=O)N(Cl)C(=O)N1Cl
false

Follow-up entry: CCOc1ccc2[nH]cc(C(=O)NCc3ccccc3)c(=O)c2n1
true

Follow-up entry: CCn1nc(C)c2c1C(=O)NCC(c1ccc(O)cc1)=N2
true

Follow-up entry: O=S(=O)(O)c1ccc(N=Nc2c(O)ccc3cc(S(=O)(=O)O)ccc23)cc1
false

Follow-up entry: Nc1ccn([C@@H]2O[C@H](CO)[C@@H](O)[C@@H]2O)c(=O)n1
false

Follow-up entry: CC(C)CC(C)O (stereo not given)
false

Follow-up entry: CCCCCCCCCCCCCCO
false

Follow-up entry: c1ccc2ncccc2c1
false

Follow-up entry: OCc1ccccc1
false

Follow-up entry: COCc1nnc(-c2ccc[n+]([O-])c2)n1-c1c(Cl)c(Cl)cc2[nH]c(=O)c(=O)[nH]c12
false

Follow-up entry: CCCCC(CC)C(=O)OCCOCCOCCOC(=O)C(CC)CCCC (stereo not given)
false

Follow-up entry: CC(=O)c1ccccc1
false

Follow-up entry: CCCC(CCC)C(=O)O
false

Follow-up entry: CCCCN1C(=O)[C@@H]([C@H](O)C2CCCCC2)NC(=O)C12CCN(Cc1ccc(Oc3ccc(C(=O)O)cc3)cc1)CC2
true

Follow-up entry: CCCCCCCCCC
false

Follow-up entry: O=C(O)c1cccc(C[C@@H]2COc3ccc(OCc4nc5cc(F)ccc5s4)cc3[C@@H]2O)c1
true

Follow-up entry: OC[C@H]1O[C@@](CO)(O[C@H]2O[C@H](CO)[C@@H](O)[C@H](O)[C@H]2O)[C@@H](O)[C@@H]1O
false

Follow-up entry: C=CCc1cc(S(=O)(=O)c2ccc(O)c(CC=C)c2)ccc1O
true

Follow-up entry: OCCOCCOCCO
false

Follow-up entry: CCCCCCCC/C=C\CCCCCCCC(=O)OC[C@@H](O)[C@H]1OC[C@H](O)[C@H]1O
false

Follow-up entry: CCCCCOC(C)=O
false

Follow-up entry: C[C@@H](Oc1ccc(CNC(=O)c2cccnc2Oc2ccc3c(c2)OCO3)c(F)c1)C(=O)O
false

Follow-up entry: CC(C)CCCCCCOC(=O)C1CCCCC1C(=O)OCCCCCCC(C)C (stereo not given)
false

Follow-up entry: Cc1nccn1-c1ccc(Sc2cccc(C3(C(N)=O)CCOCC3)c2)cc1
true
